Test system: PRKACA-PRKAR2A interaction (SmBiT-PRKACA / LgBiT-PRKAR2A), protein kinase A
Parameters: NanoLuc complementation counter-screen in cell extract, PRKACA with PRKAR2A, loss of luminescence, detects NanoLuc interference
Conditions: counter-screen for NanoLuc interference; 0.5 h, 20 µM; inhibitor
Where a name gives a salt, the structure may show the parent alone.

compound | Inh (PKA) [%]
COc1ccc(-c2ccc3ncc4c(c3c2)n(-c2ccc(N3CCNCC3)c(C(F)(F)F)c2)c(=O)n4C)cn1 | 19.52
O=C(O)CC[C@H]1CC[C@@](c2cc(F)ccc2F)(S(=O)(=O)c2ccc(Cl)cc2)CC1 | 5.084
Nc1nc(N)c2nc(-c3ccccc3)c(N)nc2n1 | 1.702
CCCN1CCCC[C@H]1C(=O)Nc1c(C)cccc1C [UM0142404:01, Ropivacaine HCl] | 0.01917
Cc1cc(CN2CCN(c3c(Br)cnc4nc(-c5ccc(N6CCN(C)CC6)cc5)[nH]c34)CC2)no1 | 46.74
C[C@H](Cn1cnc2c(N)ncnc21)OCP(=O)(O)O | -0.0985
CCCCCN(C)CCC(O)(P(=O)(O)O)P(=O)(O)O [UM0142363:01, Ibandronate sodium] | 1.018
CCCCCCCCc1ccc(CCC(N)(CO)CO)cc1 | 6.851
Cc1cc2c(cc1S(N)(=O)=O)S(=O)(=O)CCC2 | 1.197
O=c1oc2cc(O)ccc2s1 | 1.741
CCCC(C(=O)OCCN(CC)CC)(c1ccccc1)c1ccccc1 [UM0118177:04, SKF 525A (hydrochloride)] | 14.38
O=c1[nH]cc(F)c(=O)[nH]1 | 1.181
